The reader will find reported EC50 values listed item by item below.
- ASSAY_TARGET: hMC4-R (HEK-293 cells) (Homo sapiens, UniProt P32245)
- Sequence (P32245 whole entry): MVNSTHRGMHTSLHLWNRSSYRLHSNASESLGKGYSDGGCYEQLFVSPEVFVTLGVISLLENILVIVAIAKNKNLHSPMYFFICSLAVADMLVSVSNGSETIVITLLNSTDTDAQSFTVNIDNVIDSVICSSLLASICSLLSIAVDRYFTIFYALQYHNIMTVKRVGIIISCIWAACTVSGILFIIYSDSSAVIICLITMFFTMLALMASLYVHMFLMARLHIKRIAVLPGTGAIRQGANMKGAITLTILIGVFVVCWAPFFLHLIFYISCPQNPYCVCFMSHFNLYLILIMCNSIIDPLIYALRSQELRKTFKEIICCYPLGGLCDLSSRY
- TEST_DESCRIPTION: cAMP functional assay for agonist/antagonist status, MC4-R
- CONDITION_SET: cAMP accumulation
Where a SMILES comes first, the peptide text is derived from it. Bridges are numbered along the chain shown (N, C = ends). [ ]: non-standard residue; d: D form. 1Nal = N[C@@H](Cc1cccc2ccccc12)C(=O)O
MEASURED_ENDPOINT: EC50 (nM)

1. CC(=O)N[C@H]1CC(=O)NCCCC[C@@H](C(=O)N(C)C)NC(=O)[C@H](Cc2cccc3ccccc23)NC(=O)[C@H](CCCNC(=N)N)NC(=O)[C@@H](Cc2ccccc2)NC(=O)[C@H](Cc2c[nH]c3ccccc23)NC1=O [Example 15] (Ac-DW[dF]R[1Nal]K-NMe2; lactam 1-6 (inferred))	1540
2. CC(=O)N[C@H]1CC(=O)NCCCC[C@@H](C(=O)N(C)C)NC(=O)[C@H](Cc2cccc3ccccc23)NC(=O)[C@H](CCCNC(=N)N)NC(=O)[C@@H](Cc2ccccc2)NC(=O)[C@H](Cc2c[nH]cn2)NC1=O [Example 17] (Ac-DH[dF]R[1Nal]K-NMe2; lactam 1-6 (inferred))	91
3. CCNC(=O)[C@@H]1CCCCNC(=O)C[C@H](NC(C)=O)C(=O)N[C@@H](Cc2c[nH]cn2)C(=O)N[C@H](Cc2ccccc2)C(=O)N[C@@H](CCCNC(=N)N)C(=O)N[C@@H](Cc2cccc3ccccc23)C(=O)N1 [Example 16] (Ac-DH[dF]R[1Nal]K-NHEt; lactam 1-6 (inferred))	500

Values compiled from patent US8247530B2.
